# System: retinol-producing strains (Yarrowia lipolytica)
# experiment description: Flask test of retinol production of retinol-producing strains with antioxidants in the medium
# Assay type: cell-based
# test settings: antioxidant added to YLMM2 medium at 0.01% to 0.05%; 30° C., 200 rpm; 48 hour culture; HPLC
Documented retinol concentration increase as compared to the control group without antioxidants across a set of molecules
metric name: retinol concentration increase as compared to the control group without antioxidants

| molecule | measured |
| --- | --- |
| N[C@@H](CCC(=O)N[C@@H](CS)C(=O)NCC(=O)O)C(=O)O | ≤ 1.21 times |
| O=C1O[C@H]([C@@H](O)CO)C(O)=C1O | ≤ 1.44 times |
| CCCOC(=O)c1cc(O)c(O)c(O)c1 [PG, propyl gallate] | ≤ 1.82 times |
